# System: HAP1 MTAP-deleted cell line
# Test: SDMA in-cell western assay, HAP1 MTAP-deleted
# Format: cell-based
# Protocol Conditions: Homo sapiens, HAP1, SDMA in-cell western, HAP1 MTAP-deleted; read-out: HAP 1 MTAP deleted IC50
pIC50: −log10 of the molar value.
Hi there, I'd appreciate the recorded pIC50 for every entry that follows.

With HAP1 MTAP-deleted cell line as the test system, C[C@H]1CC[C@@H](c2cccnc2)N(C(=O)C(=O)Nc2cncc(C(N)=O)c2)C1 (single isomer, unassigned) showed pIC50 of < 6.00

With HAP1 MTAP-deleted cell line as the test system, CCc1cc([C@@H]2CC[C@@H](C)CN2C(=O)C(=O)Nc2cncc(C(N)=O)c2)ccc1O (racemic) showed pIC50 of > 7.00

With HAP1 MTAP-deleted cell line as the test system, C[C@@H]1CC[C@@H](c2ccccc2F)N(C(=O)C(=O)Nc2cncc(C(N)=O)c2)C1 (racemic) showed pIC50 of > 7.00

With HAP1 MTAP-deleted cell line as the test system, Cc1cncc(NC(=O)C(=O)N2C[C@H](C)CC[C@H]2c2cccc(C)c2)c1 (racemic) showed pIC50 of < 6.00

With HAP1 MTAP-deleted cell line as the test system, C[C@H]1CC[C@H](c2cccnc2)N(C(=O)C(=O)Nc2cncc(C(N)=O)c2)C1 (single isomer, unassigned) showed pIC50 of < 6.00

With HAP1 MTAP-deleted cell line as the test system, COc1ncc(NC(=O)C(=O)N2C[C@H](C)CC[C@H]2c2cccc3[nH]ncc23)cc1C(N)=O (single isomer, unassigned) showed pIC50 of < 6.00

With HAP1 MTAP-deleted cell line as the test system, CCc1cc(NC(=O)C(=O)N2C[C@H](C)CC[C@H]2c2ccn(-c3cc[nH]n3)n2)cnc1N (single isomer, unassigned) showed pIC50 of > 7.00

With HAP1 MTAP-deleted cell line as the test system, C[C@@H]1CC[C@@H](c2cc(F)c3[nH]ncc3c2)N(C(=O)C(=O)Nc2cncc(C(N)=O)c2)C1 (single isomer, unassigned) showed pIC50 of > 7.00

With HAP1 MTAP-deleted cell line as the test system, C[C@H]1CC[C@H](c2cc[nH]n2)N(C(=O)C(=O)Nc2cncc(C(N)=O)c2)C1 (single isomer, unassigned) showed pIC50 of < 6.00

With HAP1 MTAP-deleted cell line as the test system, CC[C@@H]1CC[C@@H](c2ccccc2)N(C(=O)C(=O)Nc2cncc(C(N)=O)c2)C1 (single isomer, unassigned) showed pIC50 of < 6.00

With HAP1 MTAP-deleted cell line as the test system, Cc1cc(NC(=O)C(=O)N2CCCC[C@@H]2c2ccncc2)cnc1N (single isomer, unassigned) showed pIC50 of 6.00 to 7.00

With HAP1 MTAP-deleted cell line as the test system, Cc1cc(NC(=O)C(=O)N2C[C@H](C)CC[C@H]2c2cc(F)cc(Cl)c2)cnc1N (single isomer, unassigned) showed pIC50 of > 7.00

With HAP1 MTAP-deleted cell line as the test system, CCc1cc(NC(=O)C(=O)N2C[C@@H](C)CC[C@@H]2c2ccc(N3CCC(CN4CCCC4)CC3)cc2)cnc1N showed pIC50 of > 7.00

With HAP1 MTAP-deleted cell line as the test system, Cc1cc(NC(=O)C(=O)N2CCCC[C@H]2c2cccs2)cnc1N (single isomer, unassigned) showed pIC50 of < 6.00

With HAP1 MTAP-deleted cell line as the test system, CCc1ccc([C@@H]2CC[C@@H](C)CN2C(=O)C(=O)Nc2cnc(N)c(C)c2)cn1 (single isomer, unassigned) showed pIC50 of > 7.00

With HAP1 MTAP-deleted cell line as the test system, CC(=O)N[C@H]1C[C@H]([C@H]2CC[C@@H](C)CN2C(=O)C(=O)Nc2cnc(N)c(C)c2)C1 (single isomer, unassigned) showed pIC50 of < 6.00

With HAP1 MTAP-deleted cell line as the test system, COc1ncc(NC(=O)C(=O)N2CCCCC2c2ccccc2)cc1C(N)=O (stereo not shown) showed pIC50 of 6.00 to 7.00

With HAP1 MTAP-deleted cell line as the test system, COc1ncc(NC(=O)C(=O)N2C[C@@H](C)CC[C@@H]2c2ccc3sc(CCN(C)C)nc3c2)cc1C(N)=O (single isomer, unassigned) [Compound 1378] showed pIC50 of > 7.00

With HAP1 MTAP-deleted cell line as the test system, Cc1cc(NC(=O)C(=O)N2C[C@H](C)CC[C@H]2c2ccc3c(c2)CCC(=O)N3)cnc1C(F)F (racemic) showed pIC50 of 6.00 to 7.00

With HAP1 MTAP-deleted cell line as the test system, Cc1cc(NC(=O)C(=O)N2CCCCC2c2cccc3c2CC(=O)N3)cnc1N (stereo not shown) showed pIC50 of 6.00 to 7.00

With HAP1 MTAP-deleted cell line as the test system, CC(=O)Oc1ccc([C@@H]2CC[C@@H](C)CN2C(=O)C(=O)Nc2cncc(C(N)=O)c2)cc1 (single isomer, unassigned) showed pIC50 of < 6.00

With HAP1 MTAP-deleted cell line as the test system, CC(=O)N1CCC(c2cccc(C3CCCCN3C(=O)C(=O)Nc3cnc(N)c(C)c3)c2)CC1 (single isomer, unassigned) showed pIC50 of > 7.00

With HAP1 MTAP-deleted cell line as the test system, Cc1cc(NC(=O)C(=O)N2C[C@@H](C)CC[C@@H]2c2ccc(CCN(C)C)cc2)cnc1N (single isomer, unassigned) showed pIC50 of < 6.00

With HAP1 MTAP-deleted cell line as the test system, Cc1cc(NC(=O)C(=O)N2C[C@@H](C)[C@H](CC(C)C)C[C@@H]2c2ccc3scnc3c2)cnc1N (single isomer, unassigned) showed pIC50 of < 6.00

With HAP1 MTAP-deleted cell line as the test system, Cc1cc(NC(=O)C(=O)N2C[C@@H](C)[C@@H](OC(C)C)C[C@@H]2c2ccccc2)cnc1N (single isomer, unassigned) showed pIC50 of < 6.00
